Attribution: patent US9732093B2

Would you kindly list pIC50 for each of these compounds?
test system: leukotriene pathway in human whole blood; test: Human whole blood assay (LTB4 levels after A23187 stimulation); format: cell-based; details: human whole blood diluted 1:1 in RPMI, A23187 stimulation; Table 6 (additional runs)
Answers are plain numbers, as −log10 of the molar value.

{"compound": "Fc1c(-c2cnc3[nH]ccc3n2)ccc(C2CCC2)c1OCc1ccccc1", "measured.result": 6.11}
{"compound": "Nc1cnc(-c2ccc(CC3CCCCC3)c(O)c2F)cn1", "measured.result": 6.75}
{"compound": "Nc1cnc(-c2ccc(C3CCC3)c(OCC(O)Cn3c(=O)[nH]c4ccccc43)c2F)cn1 (racemic)", "measured.result": 6.58}
{"compound": "CC(C)(C)c1ccc(-c2cnc(N)nc2)c(F)c1O [Intermediate H]", "measured.result": 6.54}

Here is the next item to consider.
Challenge: Find the recorded pIC50 belonging to Nc1cnc(-c2ccc(C3CCC3)c(Oc3cccnn3)c2F)cn1 and report it.
Response given: 6.72

###

biological target: human FLAP (Homo sapiens (Human)); assay: FLAP binding assay (HTRF format); conditions: human FLAP wild type membranes, HTRF format; Table 6 (additional runs)
Cut-off 5 nM on Ki: below means fulfilled, at or above means not fulfilled.

{"smi": "Nc1ncc(-c2ccc(C3CCCC3)c(Oc3ncccn3)c2F)cn1", "cat": "fulfilled"}

Challenge: Is the reported Ki for N#Cc1ccccc1COc1c(C2CCC2)ccc(-c2cnc(N)cn2)c1F strictly below 5 nM?
Response given: not fulfilled

Challenge: Is the reported Ki for CS(=O)(=O)c1cccc(COc2c(C3CCC3)ccc(-c3cnc(N)cn3)c2F)c1 strictly below 5 nM?
Response given: not fulfilled

Challenge: Is the reported Ki for Nc1cnc(-c2ccc(C3CCC3)c(Oc3cnc(C(F)(F)F)cn3)c2F)cn1 strictly below 5 nM?
Response given: not fulfilled

Challenge: Is the reported Ki for Nc1cnc(-c2ccc(C3CCC3)c(Oc3ncc(C(F)(F)F)cn3)c2F)cn1 strictly below 5 nM?
Response given: not fulfilled

Challenge: Is the reported Ki for Nc1cnc(-c2ccc(C3CCCCC3)c(Oc3ncccn3)c2F)cn1 strictly below 5 nM?
Response given: not fulfilled

Challenge: Is the reported Ki for Nc1cnc(-c2ccc(C3CCC3)c(Oc3nccc(N)n3)c2F)cn1 strictly below 5 nM?
Response given: not fulfilled

Challenge: Is the reported Ki for Nc1cnc(-c2ccc(C3CCC3)c(OCc3ccc(Br)cc3)c2F)cn1 strictly below 5 nM?
Response given: not fulfilled

Challenge: Is the reported Ki for Nc1ccnc(Oc2c(C3CCCC3)ccc(-c3cnc(N)nc3)c2F)n1 strictly below 5 nM?
Response given: fulfilled

###

biological target: human FLAP (Homo sapiens (Human)); assay: FLAP binding assay (HTRF format); conditions: human FLAP wild type membranes, HTRF format; Table 6 (additional runs)
Structures can show the parent of a compound that is named as a salt.
measured.property: Ki (nM)
One number for each entry, in nM.

For orientation, consider the following solved cases.
{"compound": "Nc1cnc(-c2ccc(C3CCC3)c(Oc3nccc(-c4ccccc4)n3)c2F)cn1 [Example 87]", "measured.result": 2.1}
{"compound": "CC(C)CNc1nccc(Oc2c(C3CCC3)ccc(-c3cnc(N)cn3)c2F)n1 [Example 261, trifluoroacetic acid salt]", "measured.result": 2.2}
{"compound": "CCOC(=O)c1ccc(COc2c(C3CCC3)ccc(-c3cnc(N)cn3)c2F)o1 [Example 73]", "measured.result": 275}
{"compound": "N#Cc1cccc(Oc2c(C3CCC3)ccc(-c3cnc(N)cn3)c2F)n1 [Example 111]", "measured.result": 2.4}
{"compound": "CS(=O)(=O)c1ccc(COc2c(C3CCC3)ccc(-c3cnc(N)cn3)c2F)cc1 [Compound 7]", "measured.result": 7.4}

State recorded Ki for all listed compounds.
1. Nc1cnc(-c2ccc(C3CCC3)c(Oc3nccc(-c4cccs4)n3)c2F)cn1 [Example 91]
2. COc1cc(Oc2c(C3CCC3)ccc(-c3cnc(N)cn3)c2F)nc(N)n1 [Example 99]
3. CC(C)(C)c1ccc(-c2cnc(N)cn2)cc1OCc1ccccc1 [Example 215]

Response given:
[0.8, 5.5, 705]

###

Would you kindly list pKi for each of these compounds?
molecular target: human FLAP (Homo sapiens (Human), UniProt P20292); assay: FLAP binding assay (HTRF format); conditions: human FLAP wild type membranes, HTRF format; Table 6 (additional runs)
Sequence (P20292 whole entry): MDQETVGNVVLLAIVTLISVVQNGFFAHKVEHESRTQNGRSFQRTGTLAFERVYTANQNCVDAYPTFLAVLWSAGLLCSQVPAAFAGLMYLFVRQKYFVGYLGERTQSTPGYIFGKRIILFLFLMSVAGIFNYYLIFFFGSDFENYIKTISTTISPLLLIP
One number for each entry, as −log10 of the molar value.

For orientation, consider the following solved cases.
{"compound": "Nc1cnc(-c2ccc(C3CCC3)c(Oc3ccc(C(F)(F)F)cn3)c2F)cn1 [Example 113]", "pKi": 7.51}
{"compound": "COc1ccnc(Oc2c(C3CCC3)ccc(-c3cnc(N)cn3)c2F)n1 [Example 93]", "pKi": 8.28}
{"compound": "COC(=O)c1ccc(Oc2c(C3CCC3)ccc(-c3cnc(N)cn3)c2F)nc1 [Example 107]", "pKi": 8.27}
{"compound": "Cc1nccc(Oc2c(C3CCC3)ccc(-c3cnc(N)cn3)c2F)n1 [Example 134]", "pKi": 8.34}
{"compound": "Nc1cnc(-c2ccc(C3CCCC3)c(Oc3ncccn3)c2F)cn1 [Example 337]", "pKi": 7.83}

State recorded pKi for all listed compounds.
1. CNS(=O)(=O)c1ccc(COc2c(C3CCC3)ccc(-c3cnc(N)cn3)c2F)cc1 [Compound 27]
2. Nc1cnc(-c2ccc(C3CCC3)c(OCc3ccc(CC(=O)O)cc3)c2F)cn1 [Compound 23]
3. Nc1cnc(-c2ccc(C3CCC3)c(Oc3cc(N)ncn3)c2F)cn1 [Example 136]
4. Nc1cnc(-c2ccc(C3CCC3)c(OCC3CCOCC3)c2F)cn1 [Example 264]
5. N#Cc1cccnc1Oc1c(C2CCC2)ccc(-c2cnc(N)cn2)c1F [Example 110]

Response given:
8.19
8.43
8.41
6.99
8.59

###

target: human FLAP (Homo sapiens (Human), UniProt P20292); test: FLAP binding assay (HTRF format); conditions: human FLAP wild type membranes, HTRF format; Table 6 (additional runs)
Would you kindly list pKi for each of these molecules?
Give bare numbers, as −log10 of the molar value.

For orientation, consider the following solved cases.
{"molecule": "Nc1cnc(-c2ccc(C3CCC3)c(OCc3ccccn3)c2F)cn1 [Compound 24]", "pKi": 7.79}
{"molecule": "N#Cc1nc(N)cnc1-c1ccc(C2CCC2)c(OCc2cccc(C(=O)O)c2)c1F [Example 174]", "pKi": 8.41}

Here is the next item to consider.
Challenge: Form field - read-out: pKi; system: human FLAP (Homo sapiens (Human), UniProt P20292); submitted item: Fc1c(-c2cnc3c(c2)OCCN3)ccc(C2CCC2)c1Oc1ncccn1 [Example 225]
Response given: 7.63

###

Would you kindly list pKi for each of these compounds?
molecular target: human FLAP (Homo sapiens (Human), UniProt P20292); test: FLAP binding assay (HTRF format); conditions: human FLAP wild type membranes, HTRF format; Table 6 (additional runs)
pKi: −log10 of the molar value.

For orientation, consider the following solved cases.
{"smi": "Nc1cnc(-c2ccc(C3CCC3)c(OCc3cc(S(F)(F)(F)(F)F)ccc3F)c2F)cn1", "system.name": "human FLAP (Homo sapiens (Human), UniProt P20292)", "measured.result": "~6.70"}
{"smi": "Nc1cnc(-c2ccc(C3CCC3)c(OCc3ccc(F)c(F)c3)c2F)cn1", "system.name": "human FLAP (Homo sapiens (Human), UniProt P20292)", "measured.result": "~6.60"}
{"smi": "Nc1cnc(-c2ccc(C3CCC3)c(OCc3cc(Cl)ccc3Cl)c2F)cn1", "system.name": "human FLAP (Homo sapiens (Human), UniProt P20292)", "measured.result": "~6.60"}

Challenge: Find the recorded pKi belonging to CC(C)(C)OC(=O)COc1c(C2CCC2)ccc(-c2cnc(N)cn2)c1F and report it.
Response given: ~6.87
